Recorded Kd values for a group of binders are listed next.
Target: T1, ATF1 (Homo sapiens, UniProt P18846)
T1 sequence: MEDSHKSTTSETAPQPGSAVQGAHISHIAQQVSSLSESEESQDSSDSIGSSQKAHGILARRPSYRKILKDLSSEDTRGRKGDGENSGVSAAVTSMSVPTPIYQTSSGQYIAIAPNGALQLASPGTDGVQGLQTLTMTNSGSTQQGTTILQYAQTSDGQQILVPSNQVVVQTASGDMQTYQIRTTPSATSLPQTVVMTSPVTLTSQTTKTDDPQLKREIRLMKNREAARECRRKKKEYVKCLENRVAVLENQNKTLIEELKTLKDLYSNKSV
Assay: MITOMI-type chip (QPID); rabbit reticulocyte lysate, 1 h; wash 50 mM HEPES; temperature not stated; DNA spotted at 0.0156-2 uM
Details: tags: N-cMyc, C-His6 (kept); chain copies: 2; label: Cy5 on the primer strand

{"Binder": "oligo 7 (Mutant) (dsDNA) DNA 1: GGCCACTACCGCTTCCTCCACAAATAAAATTGGTTTTCTCCACCAAGGAAGT DNA 2: ACTTCCTTGGTGGAGAAAACCAATTTTATTTGTGGAGGAAGCGGTAGTGGCC", "Kd": "> 2000 nM"}
{"Binder": "oligo 1 (CRE) (dsDNA) DNA 1: GGCCACTACCGCTTCCTCCACATGACGTCATGGTTTTCTCCACCAAGGAAGT DNA 2: ACTTCCTTGGTGGAGAAAACCATGACGTCATGTGGAGGAAGCGGTAGTGGCC", "Kd": "40 nM"}
{"Binder": "oligo 4 (AP-1) (dsDNA) DNA 1: TTATGACCTGGGAGTGAGTCAATGGAATCCACAGA DNA 2: TCTGTGGATTCCATTGACTCACTCCCAGGTCATAA", "Kd": "~17000 nM"}
{"Binder": "oligo 2 (CRE) (dsDNA) DNA 1: TTATGACCTGGGAGTGACGTCATGGAATCCACAGA DNA 2: TCTGTGGATTCCATGACGTCACTCCCAGGTCATAA", "Kd": "30 nM"}
{"Binder": "oligo 3 (AP-1) (dsDNA) DNA 1: GGCCACTACCGCTTCCTCCACATGAGTCATGGTTTTCTCCACCAAGGAAGT DNA 2: ACTTCCTTGGTGGAGAAAACCATGACTCATGTGGAGGAAGCGGTAGTGGCC", "Kd": "~11000 nM"}
{"Binder": "oligo 5 (HS) (dsDNA) DNA 1: GGCCACTACCGCTTCCTCCACATGGCGTCATGGTTTTCTCCACCAAGGAAGT DNA 2: ACTTCCTTGGTGGAGAAAACCATGACGCCATGTGGAGGAAGCGGTAGTGGCC", "Kd": "170 nM"}
{"Binder": "oligo 6 (HS) (dsDNA) DNA 1: TTATCCACTTGCGCTCGCCGAGTGGCGTCACCAGCGGTACTGTAATGACGAT DNA 2: ATCGTCATTACAGTACCGCTGGTGACGCCACTCGGCGAGCGCAAGTGGATAA", "Kd": "40 nM"}
